Provenance of the data: PubChem BioAssay (Tox21)

Experiment: p53 small molecule agonists, cell-based qHTS assay with human liver microsomes (AID 1963577);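 note: p53 response element beta-lactamase reporter cells with liver microsomes plus NADPH; % is set by controls: 0 for no effect and ±100 for the full control effect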
Conditions: HCT-116 p53RE-bla with human liver microsomes, ratio, 16 h; series mostly up to 66 µM
Records with an inconclusive call do not appear. Active and inactive are the calls of the source. Calls come from the whole dose curve.

compound	activation
CCCCCCCCCCCCN1CCCC1=O	inactive
COc1ccnc2c1CCCCC2S(=O)c1nc2ccccc2[nH]1 (stereo not drawn)	inactive
CC1C2CC(CC2C2CCCC(O)C2)C1(C)C (stereo not drawn)	inactive
CN(C)c1ccc(N=Nc2ccccc2C(=O)O)cc1	inactive
O=[N+]([O-])c1cccc(C(F)(F)F)c1	inactive
CC(C)C1=CC2=CC[C@@H]3[C@](C)(CCC[C@@]3(C)C(=O)O)[C@H]2CC1	inactive
O=C1c2ccccc2C(=O)N1SC1CCCCC1	inactive
CCC(C)Nc1ccc(NC(C)CC)cc1 (stereo not drawn)	inactive
CC(C)(c1ccccc1)c1ccccc1	inactive
CC(CN)CCCN (stereo not drawn)	inactive
NCCc1cnc[nH]1	inactive
O=c1[nH]nc(-c2ccc([N+](=O)[O-])o2)o1	inactive
Cc1nc(Nc2ncc(C(=O)Nc3c(C)cccc3Cl)s2)cc(N2CCN(CCO)CC2)n1	inactive

====

Test: p53 small molecule agonists, cell-based qHTS assay (AID 1963582); note: % is set by controls: 0 for no effect and ±100 for the full control effect
Conditions: HCT-116 p53RE-bla reporter, beta-lactamase FRET ratio, 16 h; series mostly up to 66 µM
Results filed as inconclusive are left out. The source made the active and inactive calls. The call rests on the fitted dose curve; in most records, active means well fitted activation curve with a large enough effect in the signal ratio in the repeat runs (not every such curve was filed as active); inconclusive means weak or mixed curves; inactive means flat fitted curve, though single readings scatter; the % refers to the signal ratio.

compound	activation
COc1ccc(-c2ccc3cc(C(=O)O)ccc3c2)cc1C12CC3CC(CC(C3)C1)C2	inactive
CCCC(=O)O[C@]1(C(=O)CCl)[C@@H](C)C[C@H]2[C@@H]3CCC4=CC(=O)C=C[C@]4(C)[C@@]3(F)C(=O)C[C@@]21C	inactive
CCCCC/C=C\C=C\C(=O)OCC	inactive
NC(Cc1ccc(F)cc1)C(=O)O (stereo unspecified)	1.84% [at 5.99 µM] (inactive)
N=C(N)N	inactive
CC(=O)CC(=O)Nc1ccc(S(=O)(=O)O)cc1	inactive

====

Test: p53 small molecule agonists, cell-based qHTS assay with rat liver microsomes: qHTS cell viability counter screen (AID 1963580); note: nearly all actives have a fitted effect of over 45% in size; note: potency is the fitted concentration of half-maximal effect
Conditions: p53RE-bla HCT-116 + rat microsomes, ATP viability, 16 h; series mostly up to 66 µM
Excerpt: National Center for Advancing Translational Sciences [NCATS] Division of Preclinical Innovation [DPI] U.S. Environmental Protection Agency [EPA] National Institutes of Environmental Health Sciences [NIEHS] National Toxicology Program [NTP] U.S. Food and Drug Administration [FDA] p53, a tumor suppressor protein, is activated following cellular insult, including DNA damage and other cellular stresses. […] The activation of the reporter gene under culture conditions can be detected by fluorescence intensity. […]
Inconclusive results are not listed. Activity calls are given as the source filed them. The call rests on the fitted dose curve.
recorded_metric: Potency

molecule	result
CC(C)(C)c1ccc(N)cc1	inactive
COC(=O)/C=C/C(C)=C\C=C\C(C)=C\C=C\C=C(C)\C=C\C=C(C)\C=C\C(=O)O	inactive
COc1cc(Nc2c(C#N)cnc3cc(OCCCN4CCN(C)CC4)c(OC)cc23)c(Cl)cc1Cl	inactive
Clc1nc2ccccc2nc1Cl	inactive
CC(=O)OCC(=O)[C@@]1(O)[C@H](C)C[C@H]2[C@@H]3CCC4=CC(=O)C=C[C@]4(C)[C@@]3(F)[C@@H](O)C[C@@]21C	inactive
OC(CCN1CCCCC1)(c1ccccc1)C1CC2C=CC1C2 (configuration not stated)	inactive
C=C[Si]1(C)O[Si](C)(C=C)O[Si](C)(C=C)O[Si](C)(C=C)O1 (configuration not stated)	inactive
COCCOC	inactive
COc1cc2c(cc1OC)-c1cc(=Nc3c(C)cc(C)cc3C)n(C)c(=O)n1CC2	inactive
CCCCCC(C)OC(=O)COc1ccc(Cl)c2cccnc12 (configuration not stated)	inactive
CC(=O)/C(C)=C/C1C(C)=CCCC1(C)C (configuration not stated)	inactive
CC(=O)c1c(C)c([N+](=O)[O-])c(C(C)(C)C)c([N+](=O)[O-])c1C	inactive
OC[C@H]1O[C@@H](n2cnc3c(=S)nc[nH]c32)[C@H](O)[C@@H]1O	inactive
O=C1Nc2ccc([N+](=O)[O-])cc2C1=O	inactive
Cc1cc(O)ccc1O	inactive
Brc1cc2ccccc2c2ccccc12	inactive
CC1(C)SC(C)(C)SC(C)(C)S1	inactive
O=[N+]([O-])c1ccc(Nc2ccc(Nc3ccccc3)c(S(=O)(=O)O)c2)c([N+](=O)[O-])c1	inactive
CC(C)COC(=O)C(C)C	inactive
NCCNC(=O)c1ccc(Cl)cn1	inactive
O=C(CCCN1CCN(c2ccc(F)cc2)CC1)NC1c2ccccc2CSc2ccccc21 (configuration not stated)	inactive
CC(C)[C@H]1CC[C@H](C)C[C@@H]1O	inactive
CC(C)CCOC(=O)/C=C/c1ccccc1	inactive
Cc1cc(C)c(/C=C2\C(=O)Nc3ccccc32)[nH]1	inactive
C[C@]12C(=O)OC(=O)[C@H]1[C@H]1C=C[C@@H]2C1	inactive
Cc1nccn1-c1ccc(Sc2cccc(C3(C(N)=O)CCOCC3)c2)cc1	inactive
CCCCCCOC(=O)CCCCCCCC(=O)OCCCCCC	inactive
C[C@@H]1C[C@H]2O[C@@]3(O[C@@H]2C(C)(C)O)[C@H](O)[C@@]2(C)[C@@H]4CC[C@H]5C(C)(C)[C@@H](O[C@@H]6OC[C@@H](O)[C@H](O)[C@H]6O)CC[C@@]56C[C@@]46CC[C@]2(C)[C@@H]13	inactive
Cc1cc(O)c(Cl)c(C)c1Cl	inactive
CO[Si](C)(OC)OC	inactive
CC(CO)(CO)[N+](=O)[O-]	inactive
C=C(C)C(=O)OCC(O)COc1ccc(C(C)(C)c2ccc(OCC(O)COC(=O)C(=C)C)cc2)cc1 (configuration not stated)	inactive
C=C1C(C)(C)[C@@]2(Cl)C(Cl)[C@]1(Cl)C(Cl)(Cl)C2(Cl)Cl (some centres not stated)	inactive
CCC(C)(CN(C)C)OC(=O)c1ccccc1 (configuration not stated)	inactive
Nc1c[n+](N2CCOCC2)no1	inactive
COc1cc(Cl)c(OC)cc1N	inactive
O=[N+]([O-])c1cccc(C(F)(F)F)c1	inactive
CC[C@H](C)C(=O)O[C@H]1C[C@H](O)C=C2C=C[C@H](C)[C@H](CC[C@@H](O)C[C@@H](O)CC(=O)O)[C@H]21	inactive
COc1ccc(CCN(C)CCCN2CCc3cc(OC)c(OC)cc3CC2=O)cc1OC	inactive
CCNCCO	inactive
CCCCN(CCCC)CC(O)c1cc(Cl)cc2c1-c1ccc(Cl)cc1/C2=C/c1ccc(Cl)cc1 (configuration not stated)	inactive
O=[N+]([O-])c1cc([N+](=O)[O-])c2ccc(S(=O)(=O)O)cc2c1O	inactive
CCC(C)Nc1ccc(NC(C)CC)cc1 (configuration not stated)	4.66 µM (active)
c1ccc(CN(Cc2ccccc2)Cc2ccccc2)cc1	inactive
CC(C)c1ccc2ncccc2c1	inactive
CCCOc1ccc2nc(NC(=O)OC)[nH]c2c1	inactive
Sc1nc2ccccc2s1	inactive
